Reference source: patent US20160177307

# Tested on: VEGF-121 (Homo sapiens), P15692-9
# Sequence: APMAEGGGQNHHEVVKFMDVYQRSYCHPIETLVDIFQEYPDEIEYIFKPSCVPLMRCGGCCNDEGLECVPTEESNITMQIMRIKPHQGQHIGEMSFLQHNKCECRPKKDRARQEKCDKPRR
# protocol_details: filter
# assay_setup: P=Nap-dU; C3 spacer at 41
endpoint_label: pKd
Worth noting: pKd values are minus log10 of concentrations stated in mol/L.

Query string: State the recorded pKd for this entry: CCCTCCATCAGCCGTTCAAGTGCTTGTAGGATTTAAATGGATTGGAGGA [4867-15_64]
Result string: 9.66

---

# measured_on: PDGF-BB (platelet-derived growth factor BB) (Homo sapiens)
# protocol_details: filter
# assay_setup: C3 spacer at 2; NapdU at 9,11,13,19,21; C3 spacer walk
endpoint_label: pKd
Worth noting: pKd values are minus log10 of concentrations stated in mol/L.

Query string: State the recorded pKd for this entry: CACAGCATGTATGCACATCT [5169-4_60]
Result string: 7.57

---

# measured_on: PDGF-BB (platelet-derived growth factor BB) (Homo sapiens)
# protocol_details: filter
# assay_setup: NapdU at P; 2'-OMe 20
endpoint_label: pKd
Worth noting: pKd values are minus log10 of concentrations stated in mol/L.

Query string: State the recorded pKd for this entry: CGACAGCATGTATGCACATCT [5169-4_38]
Result string: 10.66

---

# System: VEGF-121 (Homo sapiens), P15692-9
# Sequence: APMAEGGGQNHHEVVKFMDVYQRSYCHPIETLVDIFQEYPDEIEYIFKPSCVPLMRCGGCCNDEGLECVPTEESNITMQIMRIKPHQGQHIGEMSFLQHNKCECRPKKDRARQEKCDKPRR
# protocol_details: filter
# assay_setup: NapdU at P; C3 spacer 15; 2'-OMe 9,17,18,22,28,29 as printed
endpoint_label: pKd
Worth noting: pKd values are minus log10 of concentrations stated in mol/L.

Query string: State the recorded pKd for this entry: CCGTTCAAGTGCTTTAGGATTTAAATGG [4867-31_190]
Result string: 10.05

---

# Tested on: VEGF-121 (Homo sapiens), P15692-9
# Sequence: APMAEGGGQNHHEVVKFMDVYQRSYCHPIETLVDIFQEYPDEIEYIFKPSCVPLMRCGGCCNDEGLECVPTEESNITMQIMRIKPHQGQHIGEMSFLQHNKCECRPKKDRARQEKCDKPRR
# protocol_details: filter
# assay_setup: P=Nap-dU; C3 spacer at 17
endpoint_label: pKd
Worth noting: pKd values are minus log10 of concentrations stated in mol/L.

Query string: State the recorded pKd for this entry: CCCTCCATCAGCCGTTAAGTGCTTGTAGGATTTAAATGGAATTGGAGGA [4867-15_40]
Result string: 9.77

---

# measured_on: PDGF-BB (platelet-derived growth factor BB) (Homo sapiens) (UniProt P01127)
# Sequence (P01127 82-190): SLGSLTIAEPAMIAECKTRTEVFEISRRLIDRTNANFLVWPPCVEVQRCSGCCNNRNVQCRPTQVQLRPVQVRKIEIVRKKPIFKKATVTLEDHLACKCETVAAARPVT
# protocol_details: filter
# assay_setup: all Z are BndU, rest DNA; SB18T, 37 C
pKd: −log10 of the molar value.
Returns Met if the recorded pKd is greater than or equal to 10, and Not met otherwise.

sequence_record="ACACGCGTTTATAGCGTCAACCCGAGTGAACA [4149-8_19]" classification="Not met"

Query string: For this sequence, is measured pKd 10 or higher? CTTACGACTACGTTACACGCGTTTATAG [4149-8_32]
Result string: Not met

Query string: For this sequence, is measured pKd 10 or higher? CTTACGACTACGTTACACGCGTTTATAGC [4149-8_31]
Result string: Not met

Query string: For this sequence, is measured pKd 10 or higher? ATCTCTTACGACTACGTTACACGCGTTTATAGCGTCAACCCGAGTG [4149-8_5]
Result string: Met

Query string: For this sequence, is measured pKd 10 or higher? TACGTTACACGCGTTTATAGCGTCAACCCGAGTGAACA [4149-8_16]
Result string: Not met

Query string: For this sequence, is measured pKd 10 or higher? CTTACGACTACGTTACACGCGTTTATAGCGTCAACCCGAGTGAACA [4149-8_12]
Result string: Met

Query string: For this sequence, is measured pKd 10 or higher? ATCTCTTACGACTACGTTACACGCGTTTATAGCGTCAA [4149-8_9]
Result string: Met
